Where these numbers come from: patent US20200061062A1

Test System: PI3Kα (Homo sapiens)
Construct: His tag (pFastbac HTb vector) (N); FLAG; made in house; host or cells: Sf21 insect cells (baculovirus)
Sequence (P42336 whole entry): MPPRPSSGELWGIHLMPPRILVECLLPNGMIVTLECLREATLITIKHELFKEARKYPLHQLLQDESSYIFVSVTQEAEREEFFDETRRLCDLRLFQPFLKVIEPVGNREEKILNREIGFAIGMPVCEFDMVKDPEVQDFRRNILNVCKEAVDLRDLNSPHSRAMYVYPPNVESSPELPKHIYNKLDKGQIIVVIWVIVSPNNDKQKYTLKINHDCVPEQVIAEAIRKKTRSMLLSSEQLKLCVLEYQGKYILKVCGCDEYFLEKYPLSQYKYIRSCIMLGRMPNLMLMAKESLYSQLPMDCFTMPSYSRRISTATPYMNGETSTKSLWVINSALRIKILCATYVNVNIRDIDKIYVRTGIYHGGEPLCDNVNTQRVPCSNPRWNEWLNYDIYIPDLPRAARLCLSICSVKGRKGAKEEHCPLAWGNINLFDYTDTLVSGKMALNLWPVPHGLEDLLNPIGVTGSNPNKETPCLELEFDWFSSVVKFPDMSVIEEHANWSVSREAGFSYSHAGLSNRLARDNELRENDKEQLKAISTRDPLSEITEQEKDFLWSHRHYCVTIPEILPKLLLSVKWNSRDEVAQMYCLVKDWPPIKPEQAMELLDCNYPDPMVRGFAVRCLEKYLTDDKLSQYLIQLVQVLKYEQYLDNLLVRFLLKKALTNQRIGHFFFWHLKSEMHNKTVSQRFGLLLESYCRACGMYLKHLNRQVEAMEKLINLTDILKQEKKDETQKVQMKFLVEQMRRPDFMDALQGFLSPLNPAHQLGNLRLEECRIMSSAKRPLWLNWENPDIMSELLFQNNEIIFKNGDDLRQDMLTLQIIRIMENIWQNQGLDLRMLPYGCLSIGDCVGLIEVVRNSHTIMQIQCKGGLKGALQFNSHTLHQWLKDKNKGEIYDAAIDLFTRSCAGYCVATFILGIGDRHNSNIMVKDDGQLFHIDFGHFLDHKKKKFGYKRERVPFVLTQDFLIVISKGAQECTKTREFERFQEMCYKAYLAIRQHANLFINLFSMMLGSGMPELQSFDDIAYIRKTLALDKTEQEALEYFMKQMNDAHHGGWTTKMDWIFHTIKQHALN
Sequence (P27986 whole entry partner): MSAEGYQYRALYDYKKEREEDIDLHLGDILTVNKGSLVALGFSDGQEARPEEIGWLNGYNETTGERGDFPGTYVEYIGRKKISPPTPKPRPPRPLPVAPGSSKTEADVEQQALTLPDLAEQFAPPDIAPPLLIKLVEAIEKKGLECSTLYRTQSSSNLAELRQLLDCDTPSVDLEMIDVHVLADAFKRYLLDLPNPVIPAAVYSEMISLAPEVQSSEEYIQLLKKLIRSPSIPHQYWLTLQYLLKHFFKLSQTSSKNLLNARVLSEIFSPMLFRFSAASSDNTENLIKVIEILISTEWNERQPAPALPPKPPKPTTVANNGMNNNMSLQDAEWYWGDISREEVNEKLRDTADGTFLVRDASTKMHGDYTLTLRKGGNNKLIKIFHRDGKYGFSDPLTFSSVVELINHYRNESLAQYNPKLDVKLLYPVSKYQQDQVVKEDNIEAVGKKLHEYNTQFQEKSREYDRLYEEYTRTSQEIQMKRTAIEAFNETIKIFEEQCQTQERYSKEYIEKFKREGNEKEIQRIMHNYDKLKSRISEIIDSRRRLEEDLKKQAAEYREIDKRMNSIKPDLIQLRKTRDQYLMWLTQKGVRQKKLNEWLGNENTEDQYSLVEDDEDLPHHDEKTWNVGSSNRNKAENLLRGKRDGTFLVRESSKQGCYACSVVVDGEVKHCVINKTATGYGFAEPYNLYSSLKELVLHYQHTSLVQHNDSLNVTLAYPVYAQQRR
Assay Procedure: Biochemical assay of PI3K potency and selectivity using 20 μM ATP, Alpha
Assay Context: Example 2 assay conditions; limit of 100 μM compound; read-out: IC50, α isoform of PI3K (FIG. 1)
Parameter: IC50

Measured on PI3Kα (Homo sapiens), O=c1c2ccccc2nc(CSc2ncnc3[nH]cnc23)n1-c1ccccc1Cl has a documented IC50 of > 100 µM

* * *

Tested on: human B cells
Assay Procedure: Antibody production by human B cells (IgG and IgM ELISA)
Format: cell-based
Assay Context: B-cell, IL-2 and PANSORBIN stimulation, FIG. 7, read-out: Half-maximal inhibition of IgG production
Parameter: IC50

The compound identified as O=c1c2ccccc2nc(CSc2ncnc3[nH]cnc23)n1-c1ccccc1Cl registered its IC50 at ~7 µM

* * *

Reported Beta/Delta Ratio values are given for each entry in this list.
Test System: PI3Kβ (Homo sapiens)
Construct: His tag (pFastbac HTa vector) (N); FLAG (N); made in house; host or cells: Sf21 insect cells (baculovirus)
Sequence (P42338 whole entry): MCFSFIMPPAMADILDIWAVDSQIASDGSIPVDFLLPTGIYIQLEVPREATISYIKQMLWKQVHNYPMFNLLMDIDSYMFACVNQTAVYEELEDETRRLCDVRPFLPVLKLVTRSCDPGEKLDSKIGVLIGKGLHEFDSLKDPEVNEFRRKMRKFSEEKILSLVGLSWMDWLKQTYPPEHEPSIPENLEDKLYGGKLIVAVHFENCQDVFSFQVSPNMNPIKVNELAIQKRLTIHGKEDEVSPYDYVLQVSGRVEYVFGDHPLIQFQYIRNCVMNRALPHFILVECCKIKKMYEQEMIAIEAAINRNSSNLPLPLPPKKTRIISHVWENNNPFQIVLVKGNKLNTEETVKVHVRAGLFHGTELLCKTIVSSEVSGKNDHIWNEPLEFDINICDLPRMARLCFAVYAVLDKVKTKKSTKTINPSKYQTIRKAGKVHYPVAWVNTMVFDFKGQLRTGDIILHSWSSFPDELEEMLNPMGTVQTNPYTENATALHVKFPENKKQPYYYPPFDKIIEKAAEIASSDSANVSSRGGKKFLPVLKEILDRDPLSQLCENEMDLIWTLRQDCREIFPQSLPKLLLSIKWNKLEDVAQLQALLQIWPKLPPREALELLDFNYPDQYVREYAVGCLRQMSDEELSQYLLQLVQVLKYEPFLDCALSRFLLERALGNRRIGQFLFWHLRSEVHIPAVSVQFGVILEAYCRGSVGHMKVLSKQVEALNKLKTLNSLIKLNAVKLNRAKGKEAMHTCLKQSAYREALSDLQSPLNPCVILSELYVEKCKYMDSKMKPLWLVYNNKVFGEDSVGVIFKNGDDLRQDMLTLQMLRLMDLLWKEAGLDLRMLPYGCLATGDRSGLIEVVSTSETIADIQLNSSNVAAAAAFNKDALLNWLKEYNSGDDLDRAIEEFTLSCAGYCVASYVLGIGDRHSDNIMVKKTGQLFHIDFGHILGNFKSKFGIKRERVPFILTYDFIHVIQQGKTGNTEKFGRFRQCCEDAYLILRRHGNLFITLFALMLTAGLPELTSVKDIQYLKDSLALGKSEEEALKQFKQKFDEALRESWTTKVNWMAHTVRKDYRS
Sequence (P27986 whole entry partner): as the sequence (P27986 whole entry partner) above
Assay Procedure: Biochemical assay of PI3K potency and selectivity using 20 μM ATP, Beta
Assay Context: 20 μM ATP; ratio of IC50 values; > = hypothetical ratio with 100 μM substituted for the missing IC50
# print the numeric value only

> print(dat)
                    structure.smiles.string  endpoint.result
1  Nc1ncnc2c1ncn2Cc1nc2c(Cl)cccc2c(=O)n1-c1ccccc1Cl               57

Here's the next entry for you.
The compound identified as O=c1c2c(Cl)cccc2nc(CSc2ncnc3[nH]cnc23)n1-c1ccccc1-c1ccccc1 registered its Beta/Delta Ratio at 260

* * *

Parameter: melting point

Past entries and their recorded results:
> print(dat)
                                   compound           endpoint.result
1  Nc1ncnc2c1ncn2Cc1nc2cccc(Cl)c2c(=O)n1-c1ccccc1F [Compound D-012]  295.6 to 295.8 °C (dec.)
2  O=c1c2cccc(Cl)c2nc(CSc2ncnc3[nH]cnc23)n1-c1ccccc1Cl [Compound D-021]         211.9 to 212.7 °C
3  Nc1ncnc2c1ncn2Cc1nc2cccc(F)c2c(=O)n1-c1ccccc1Cl [Compound D-005]      159 to 172 °C (dec.)

Here's the next entry for you.
The compound identified as Nc1ncnc2c1ncn2Cc1nc2cccc(Cl)c2c(=O)n1-c1ccccc1-c1ccccc1 [Compound D-009] registered its melting point at 299.9 to 300.1 °C

* * *

Test System: PI3Kγ (Homo sapiens)
Construct: His tag (pFastbac HTb vector) (N); FLAG (N); made in house; host or cells: Sf21 insect cells (baculovirus)
Sequence (P48736 whole entry): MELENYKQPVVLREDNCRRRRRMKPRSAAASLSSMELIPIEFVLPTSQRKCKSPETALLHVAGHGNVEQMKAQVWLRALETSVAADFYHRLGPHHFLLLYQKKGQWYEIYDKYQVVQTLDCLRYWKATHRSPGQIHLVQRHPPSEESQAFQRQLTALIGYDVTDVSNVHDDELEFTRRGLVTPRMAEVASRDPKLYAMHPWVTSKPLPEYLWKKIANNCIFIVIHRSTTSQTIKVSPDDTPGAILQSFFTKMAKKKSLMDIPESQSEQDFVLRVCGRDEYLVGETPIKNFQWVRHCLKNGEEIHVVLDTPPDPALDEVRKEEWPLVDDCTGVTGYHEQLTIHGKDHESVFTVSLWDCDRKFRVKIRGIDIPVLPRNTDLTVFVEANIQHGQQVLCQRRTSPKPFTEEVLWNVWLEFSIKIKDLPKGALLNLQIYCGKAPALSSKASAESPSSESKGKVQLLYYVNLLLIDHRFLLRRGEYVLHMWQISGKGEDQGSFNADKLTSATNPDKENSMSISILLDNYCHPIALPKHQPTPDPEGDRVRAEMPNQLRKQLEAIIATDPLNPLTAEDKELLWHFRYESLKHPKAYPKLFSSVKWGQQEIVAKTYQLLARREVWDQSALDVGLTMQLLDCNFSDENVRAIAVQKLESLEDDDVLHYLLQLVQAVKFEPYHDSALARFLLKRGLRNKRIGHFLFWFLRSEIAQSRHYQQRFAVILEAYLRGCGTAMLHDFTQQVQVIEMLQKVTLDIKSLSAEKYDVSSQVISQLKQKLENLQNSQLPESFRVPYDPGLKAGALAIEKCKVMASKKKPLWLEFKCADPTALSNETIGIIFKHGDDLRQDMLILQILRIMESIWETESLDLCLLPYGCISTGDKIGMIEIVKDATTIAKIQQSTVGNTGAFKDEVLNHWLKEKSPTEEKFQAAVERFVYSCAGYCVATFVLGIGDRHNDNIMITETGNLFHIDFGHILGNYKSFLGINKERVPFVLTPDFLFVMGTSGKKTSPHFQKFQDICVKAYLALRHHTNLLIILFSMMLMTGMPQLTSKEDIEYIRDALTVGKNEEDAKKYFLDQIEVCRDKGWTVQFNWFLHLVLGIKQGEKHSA
Assay Procedure: Biochemical assay of PI3K potency and selectivity using 20 μM ATP, Gamma
Parameter: pIC50
Note on pIC50: it is the negative log10 of concentration, concentration in mol/L.

Past entries and their recorded results:
> print(dat)
                                   compound           test.system  endpoint.result
1  CC(=O)O.O=c1c2ccccc2nc(CSc2ncnc3[nH]cnc23)n1N1CCOCC1 [Compound D-039, acetate salt]  PI3Kγ (Homo sapiens)             4.42
2  O=c1c2c(F)cccc2nc(CSc2ncnc3[nH]cnc23)n1-c1ccccc1Cl  PI3Kγ (Homo sapiens)             5.44
3  O=c1c2c(Cl)cccc2nc(CSc2ncnc3[nH]cnc23)n1-c1ccccc1-c1ccccc1  PI3Kγ (Homo sapiens)             5.68

Here's the next entry for you.
The compound identified as O=c1c2ccccc2nc(CSc2ncnc3[nH]cnc23)n1-c1ccccc1Cl registered its pIC50 at 5.11
